- assay.overview: Toxicity in Swiss mouse infected with multidrug-resistant Plasmodium yoelii nigeriensis assessed as animal survival at 6 mg/kg, IM for 4 days measured on day 28
- Assay type: organism-based
- study.conditions: Swiss, in vivo, time 4 day, read-out: Activity
observed.property: survival at 96 h (%)

query_smiles=C[C@@H]1CC[C@H]2[C@@H](C)C(=O)N(N=C3CCCC3)[C@@H]3O[C@@]4(C)CC[C@@H]1[C@@]23OO4 observed_property="survival at 96 h" val=80

* * *

- assay.overview: Toxicity in Swiss mouse infected with multidrug-resistant Plasmodium yoelii nigeriensis assessed as animal survival at 12 mg/kg, IM for 4 days measured on day 28
- Assay type: organism-based
- study.conditions: Swiss, in vivo, time 4 day, read-out: Activity
The following compounds are listed with their measured survival at 96 h values.
observed.property: survival at 96 h (%)

query_smiles=C[C@@H]1CC[C@H]2[C@@H](C)C(=O)N(/N=C/c3ccc(Br)cc3)[C@@H]3O[C@@]4(C)CC[C@@H]1[C@@]23OO4 val=60
query_smiles=C[C@@H]1CC[C@H]2[C@@H](C)C(=O)N(/N=C/c3ccccc3O)[C@@H]3O[C@@]4(C)CC[C@@H]1[C@@]23OO4 val=40
query_smiles=C[C@@H]1CC[C@H]2[C@@H](C)C(=O)N(N=C3C4CC5CC(C4)CC3C5)[C@@H]3O[C@@]4(C)CC[C@@H]1[C@@]23OO4 val=20
query_smiles=C[C@@H]1CC[C@H]2[C@@H](C)C(=O)N(/N=C/c3ccco3)[C@@H]3O[C@@]4(C)CC[C@@H]1[C@@]23OO4 val=80
query_smiles=C[C@@H]1CC[C@H]2[C@@H](C)C(=O)N(N=C3CCCCC3)[C@@H]3O[C@@]4(C)CC[C@@H]1[C@@]23OO4 val=40
query_smiles=COc1ccc(/C=N/N2C(=O)[C@H](C)[C@@H]3CC[C@@H](C)[C@@H]4CC[C@@]5(C)OO[C@]43[C@H]2O5)cc1 val=60
